# test target: T1, Monkey 4-1BB extracellular region recombinant protein (his-tag) (monkey)
# T1 construct: extracellular domain; also called Monkey4-1BB, his-tag
# procedure text: ELISA, coated monkey 4-1BB-his 200 ng/well; antibody 3.33 µg/ml
parameter measured: absorbance at 450 nm

Check out these entries, answers already filled in.
# binder, value reported
data = [
    ("137-18 VHH-hFc recombinant antibody (Fc fusion, VHH fragment inserted into vector pFclG with human IgG1 Fc tag, expressed in HEK293F; also called CD137-18; not shown: human IgG1 Fc tag of the eukaryotic expression vector pFclG) QVQLVESGGGLVHPGGSLRLSCAASGFIFSLYTMSWVRQAPGKGLEWVSDINSGGDSTDYADSVKGRFTISRDNAKSTLYLQMNSLKPEDTAVYYCAKDYPLGQREDYWGQGTQVTVSS", 2.05),
    ("137-12 VHH-hFc recombinant antibody (Fc fusion, VHH fragment inserted into vector pFclG with human IgG1 Fc tag, expressed in HEK293F; not shown: human IgG1 Fc tag of the eukaryotic expression vector pFclG) QVQLVESGGGLVHPGGSLRLSCAASGFTLDDSAIGWFRQAPGKEREGVSCRSRSGYMTKYADSVKGRFTISRYNANNTMYLQMNSLKPEDTAVYYCATTRRGYCSGYETKGVDYWGQGIQVTVSS", 0.679),
    ("137-39 VHH-hFc recombinant antibody (Fc fusion, VHH fragment inserted into vector pFclG with human IgG1 Fc tag, expressed in HEK293F; Preparation had non-specific bands, purity about 30%; not shown: human IgG1 Fc tag of the eukaryotic expression vector pFclG) QVQLVESGGGLVHVGESLTLSCVISGGSSNLYGIGWYRQAPGQERKLVAVLHNEHTTKYLDSVKGRFFVSGDNAKNTLYLHMNNVKVEDTAVYYCNSASGTLAGTGYFASVGPWGQGTLVTVSS", 0.342),
]

// below: absorbance at 450 nm requested for another binder
Could you share which absorbance at 450 nm value was measured for 137-36 VHH-hFc recombinant antibody (Fc fusion, VHH fragment inserted into vector pFclG with human IgG1 Fc tag, expressed in HEK293F; not shown: human IgG1 Fc tag of the eukaryotic expression vector pFclG) QVQLVESGGGLVQTGGSLTLSCVASGRRFEAYTIGWLRQAPGDLREGVGCIFGGTTFTGYDDSVKGRFTISRDTAKNTVYLRMNNLTSEDTATYYCAAEGRPGQIKGQHGCLTPSWYNYKGQGTQVTVSS ?
0.879

Source listed as patent EP4592317A1.
